Origin of the recorded values: patent US20260193271A1

Test system: SW480 (G12V)
Experiment: In vitro cell proliferation inhibition test (CellTiter-Glo), SW480
Assay type: cell-based
Details: Homo sapiens, SW480 colon cell line, KRAS (p.G12V), 72 h co-incubation
measuredQuantity: IC50 (nM)
// units = nM; emit number, no label

For orientation, consider the following solved cases.
1. CCn1c(-c2cc(-c3cnc4c(c3)CN(C)C4)cnc2[C@H](C)OC)c2c3cc(ccc31)-c1csc(n1)C[C@H](NC(=O)[C@H]1C[C@@H]1C)C(=O)N1CCC[C@H](N1)C(=O)OCC(C)(C)C2 (atropisomer, axis not shown) [Compound 45]; 6.2
2. CCn1c(-c2cc(-c3ccc(CN4CCN(C)CC4)cc3)cnc2[C@H](C)OC)c2c3cc(ccc31)-c1csc(n1)C[C@H](NC(=O)[C@H]1C[C@@H]1C)C(=O)N1CCC[C@H](N1)C(=O)OCC(C)(C)C2 (atropisomer, axis not shown) [Compound 8]; 1.4
3. CCn1c(-c2cc(-c3ccc(CN4CCOCC4)nc3)cnc2[C@H](C)OC)c2c3cc(ccc31)-c1csc(n1)C[C@H](NC(=O)[C@H]1C[C@@H]1C)C(=O)N1CCC[C@H](N1)C(=O)OCC(C)(C)C2 (atropisomer, axis not shown) [Compound 5]; 10
4. CCn1c(-c2cc(-c3ccc(CN4CCOCC4)cc3)cnc2[C@H](C)OC)c2c3cc(ccc31)-c1csc(n1)C[C@H](NC(=O)[C@H]1[C@H](C)[C@@H]1C)C(=O)N1CCC[C@H](N1)C(=O)OCC(C)(C)C2 (atropisomer, axis not shown) [Compound 1]; 1.3
5. CCn1c(-c2cc(-c3ccc4c(c3)CCN(C)C4)cnc2[C@H](C)OC)c2c3cc(ccc31)-c1csc(n1)C[C@H](NC(=O)[C@H]1[C@H](C)[C@@H]1C)C(=O)N1CCC[C@H](N1)C(=O)OCC(C)(C)C2 (atropisomer, axis not shown) [Compound 3]; 0.33
6. CCn1c(-c2cc(-c3ccc(CN4CCN(C)CC4)cn3)cnc2[C@H](C)OC)c2c3cc(ccc31)-c1csc(n1)C[C@H](NC(=O)[C@H]1C[C@@H]1C)C(=O)N1CCC[C@H](N1)C(=O)OCC(C)(C)C2 (atropisomer, axis not shown) [Compound 41]; 3.7
7. CCn1c(-c2cc(-c3cn(CC4CCN(C)CC4)nn3)cnc2C(C)OC)c2c3cc(ccc31)-c1csc(n1)C[C@H](NC(=O)[C@H]1C[C@@H]1C)C(=O)N1CCC[C@H](N1)C(=O)OCC(C)(C)C2 (stereo partly shown) [Compound 65]; 150
8. CCn1c(-c2cc(-c3ncc(CN4CCOCC4)cn3)cnc2[C@H](C)OC)c2c3cc(ccc31)-c1csc(n1)C[C@H](NC(=O)C1C[C@@H]1C)C(=O)N1CCC[C@H](N1)C(=O)OCC(C)(C)C2 (stereo partly shown) [Compound 14]; 2.8

Proceed to the following item.
Prompt: Param readout= IC50; system= SW480 (G12V); entry= CCn1c(-c2cc(-c3cnc(OC)nc3)cnc2[C@H](C)OC)c2c3cc(ccc31)-c1csc(n1)C[C@H](NC(=O)[C@H]1C[C@@H]1C)C(=O)N1CCC[C@H](N1)C(=O)OCC(C)(C)C2 (atropisomer, axis not shown) [Compound 57] ; returns value.
Completion: 4.6
